Where these numbers come from: paper PMC8261047

Target: 3-dehydroquinate synthase (AvDHQS, Ava_4386) (Trichormus variabilis)
Sequence (Q3M4V2 1-363): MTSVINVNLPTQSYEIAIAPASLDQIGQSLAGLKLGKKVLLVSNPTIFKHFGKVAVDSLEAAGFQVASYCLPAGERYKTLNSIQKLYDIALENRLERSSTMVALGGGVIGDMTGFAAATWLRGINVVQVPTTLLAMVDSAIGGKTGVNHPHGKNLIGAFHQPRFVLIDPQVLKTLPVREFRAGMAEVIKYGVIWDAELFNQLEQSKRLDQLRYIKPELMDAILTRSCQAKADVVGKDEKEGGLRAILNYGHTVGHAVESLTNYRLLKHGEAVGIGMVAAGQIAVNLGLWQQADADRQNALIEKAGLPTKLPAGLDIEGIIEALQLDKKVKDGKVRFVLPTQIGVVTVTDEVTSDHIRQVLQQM
measurement.kind: pKi
pKi here: minus log base 10 of the concentration, concentration in moles per litre.

So what's the measured pKi for this one? C[C@@H](O)[C@@H](O)[C@@H](O)[C@H](O)C(=O)CO
4.75
